molecular target: T1, mouse DLL4 extracellular domain (mouse, UniProt Q9JI71 27-532); test: SPR (Biacore)
T1 construct: extracellular domain; also called muDLL4 ECD; murine DLL4
T1 sequence (Q9JI71 27-532): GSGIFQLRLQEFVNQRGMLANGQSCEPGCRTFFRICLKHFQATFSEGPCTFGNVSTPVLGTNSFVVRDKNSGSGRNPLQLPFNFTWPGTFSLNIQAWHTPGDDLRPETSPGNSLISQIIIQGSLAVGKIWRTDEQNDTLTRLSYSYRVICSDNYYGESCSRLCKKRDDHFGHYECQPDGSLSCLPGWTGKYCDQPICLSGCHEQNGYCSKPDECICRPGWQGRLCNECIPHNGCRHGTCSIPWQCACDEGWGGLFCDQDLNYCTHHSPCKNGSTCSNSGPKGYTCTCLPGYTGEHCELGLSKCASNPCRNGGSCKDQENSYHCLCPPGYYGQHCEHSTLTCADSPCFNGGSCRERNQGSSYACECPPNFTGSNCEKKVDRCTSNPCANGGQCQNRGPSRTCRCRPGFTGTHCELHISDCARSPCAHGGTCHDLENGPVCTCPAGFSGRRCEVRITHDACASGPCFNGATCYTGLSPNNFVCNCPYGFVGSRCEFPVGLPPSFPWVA
Label key: T means Kd under 1 nM; F means Kd of 1 nM or more.

See these solved cases before continuing.
binder	answer-label
h1A11.A8 (antibody, V domains shown, also called h1A11.A8 VH / h1A11VL.1) VH: EVQLVESGGGLVQPGGSLRLSCAASGFTFGNFPMSWVRQAPGKGLEWVASISSSDSWATIGDSVKGRFTISRDNAKNSLYLQMNSLRAEDTAVYYCSRGYYNSPFAYWGQGTLVTVSS VL: DIQMTQSPSSLSASVGDRVTITCRASEDIYSNLAWYQQKPGKAPKLLIYDTNNLADGVPSRFSGSGSGTDFTLTISSLQPEDFATYYCQQYNNYPPTFGQGTKLEIK	T
h1A11.G3 (antibody, V domains shown, also called h1A11.G3 VH / h1A11.E12 VL) VH: EVQLVESGGGLVQPGGSLRLSCAASGFTFRYFPMSWVRQAPGKGLEWVASISGSDGWASYRDSVKGRFTISRDNAKNSLYLQMNSLRAEDTAVYYCARGYYNSPFAYWGQGTLVTVSS VL: DIQMTQSPSSLSASVGDRVTITCRASQEIYRNLAWYQQKPGKSPKLLIFDTSVLADGVPSRFSGSGSGTDSTLTISSLQPEDFATYYCQQYTYYPPTFGQGTKLEIK	T
h1A11.C6 (antibody, V domains shown, also called h1A11.C6 VH / h1A11VL.1) VH: EVQLVESGGGLVQPGGSLRLSCAASGFTFRNFPMAWVRQAPGKGLEWVATISSSDGWPTYRDSVKGRFTISRDNAKSSLYLQMNSLRAEDTAVYYCSRGYYNSPFAYWGQGTLVTVSS VL: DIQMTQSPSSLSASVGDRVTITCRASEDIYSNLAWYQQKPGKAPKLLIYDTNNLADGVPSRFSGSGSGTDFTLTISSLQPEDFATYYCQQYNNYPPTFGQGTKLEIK	T
h1A11.B4 (antibody, V domains shown, also called h1A11VH.1 / h1A11.B4 VL) VH: EVQLVESGGGLVQPGGSLRLSCAASGFTFSNFPMAWVRQAPGKGLEWVATISSSDGTTYYRDSVKGRFTISRDNAKNSLYLQMNSLRAEDTAVYYCARGYYNSPFAYWGQGTLVTVSS VL: DIQMTQSPSSLSASVGDRVTITCRASQDIYYNLAWYQQKPGKAPKLLIFDTNILADGVPSRFSGSGSGTDFTLTISSLQPEDFATYFCQQYDYVPPTFGQGTKLEIK	F
h1A11.H2 (antibody, V domains shown, also called h1A11.H2 VH / h1A11.E12 VL) VH: EVQLVESGGGLVQPGGSLRLSCAASGFTFGNFPMSWVRQAPGKGLEWVASISSSDSWATIGDSVKGRFTISRDNAKNSLYLQMNSLRAEDTAVYYCARGYYNSPFAFWGQGTLVTVSS VL: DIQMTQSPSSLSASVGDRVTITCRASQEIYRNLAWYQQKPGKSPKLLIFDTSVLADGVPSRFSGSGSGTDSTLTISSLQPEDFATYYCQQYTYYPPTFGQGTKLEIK	T
h1A11.E12 (antibody, V domains shown, also called h1A11.E12 VH / h1A11.E12 VL) VH: EVQLVESGGGLVQPGGSLRLSCAASGFTFRYFPMAWVRQAPGKGLEWVATISGSDEWPNYRDSVKGRFTISRDNAKNSLYLQMNSLRAEDTAVYYCARGYYNSPFAFWGQGTLVTVSS VL: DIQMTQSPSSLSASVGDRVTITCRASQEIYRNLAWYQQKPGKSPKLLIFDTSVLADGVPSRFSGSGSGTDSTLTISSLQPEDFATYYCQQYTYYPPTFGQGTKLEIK	T
h1A11.A11 (antibody, V domains shown, also called h1A11.A11 VH / h1A11VL.1) VH: EVQLVESGGGLVQPGGSLRLSCAASGFTFRHFPMAWVRQAPGKGLEWVATISSSDDWPNYRDSVKGRFTISRDNAKSSLYLQMNSLRAEDTAVYYCSRGYYNSPFAYWGQGTLVTVSS VL: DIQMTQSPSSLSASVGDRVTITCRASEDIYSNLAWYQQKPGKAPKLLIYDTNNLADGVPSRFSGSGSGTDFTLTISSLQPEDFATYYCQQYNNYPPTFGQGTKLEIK	T
h1A11.1 (antibody, V domains shown, humanized IgG; also called hu1A11.1; VH.1/VL.1 1A11) VH: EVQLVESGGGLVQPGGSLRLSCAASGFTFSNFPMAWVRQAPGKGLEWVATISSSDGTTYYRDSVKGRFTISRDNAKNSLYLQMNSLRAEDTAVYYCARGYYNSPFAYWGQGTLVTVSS VL: DIQMTQSPSSLSASVGDRVTITCRASEDIYSNLAWYQQKPGKAPKLLIYDTNNLADGVPSRFSGSGSGTDFTLTISSLQPEDFATYYCQQYNNYPPTFGQGTKLEIKR	F

Data request: Hi there! Is Kd for h1A11.A6 (antibody, V domains shown, also called h1A11.A6 VH / h1A11VL.1) VH: EVQLVESGGGLVQPGGSLRLSCAASGFTFRHFPMAWVRQAPGKGLEWVATISSSDAWPSYRDSVKGRFTISRDNAKNSLYLQMNSLRAEDTAVYYCSRGYYNSPFAYWGQGTLVTVSS VL: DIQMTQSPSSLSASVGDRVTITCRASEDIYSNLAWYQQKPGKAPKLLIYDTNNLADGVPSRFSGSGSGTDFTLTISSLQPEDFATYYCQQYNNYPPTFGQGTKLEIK below 1 nM, do you know?
Data returned: T

Data request: Problem: For the binder h1A11.B5 (antibody, V domains shown, also called h1A11.B5 VH / h1A11.B5 VL) VH: EVQLVESGGGLVQPGGSLRLSCAASGFTFRYFPMSWVRQAPGKGLEWVASISGSDGWASYRDSVKGRFTISRDNAKNSLYLQMNSLRAEDTAVYYCARGYYNSPFASWGQGTLVTVSS VL: DIQMTQSPSSLSASVGDRVTITCRASQDIWNNLAWYQQKPGKSPKLLIFDTSYLADGVPSRFSGSGSGTDFTLTISSLQPEDFATYYCQQYDWYPPTFGQGTKLEIK , is Kd under 1 nM?
Data returned: F

Data request: Identify whether the binder h1A11.A2 (antibody, V domains shown, also called h1A11VH.1 / h1A11.A2 VL) VH: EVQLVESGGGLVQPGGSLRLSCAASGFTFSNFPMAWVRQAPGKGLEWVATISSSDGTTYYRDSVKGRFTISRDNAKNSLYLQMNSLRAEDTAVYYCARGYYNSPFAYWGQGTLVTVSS VL: DIQMTQSPSSLSASVGDRVTITCRASQDIYINLAWYQQKPGKSPKLLIFDTNDLADGVPSRFSGSGSGTDFTLTISSLQPEDFATYYCQQYDYVPPTFGQGTKLEIK records Kd below 1 nM.
Data returned: F
